- target under test: UniProt:P21554
- protocol: Displacement of [3H]CP55940 in membranes of CHO-K1 cells over-expressing CB1
- measurement setup: CB1 versus CB2
Exercise: for every item that follows, state its recorded Binding Selectivity using CP55940 Displacement.
No unit in the answer, please; the number alone is enough.

Give the reported Binding Selectivity using CP55940 Displacement for this molecule. CC(C)(C)OC(=O)NC1(c2ccccc2)CCN(c2ncnc3c2nc(-c2ccccc2Cl)n3-c2ccc(Cl)cc2)CC1 1959

// Input: CC(C)CCC(=O)NC1CCN(c2ncnc3c2nc(-c2ccccc2Cl)n3-c2ccc(Cl)cc2)CC1 . Output its Binding Selectivity using CP55940 Displacement only. 81

Retrieve Binding Selectivity using CP55940 Displacement measured for NC1(c2ccccc2)CCN(c2ncnc3c2nc(-c2ccccc2Cl)n3-c2ccc(Cl)cc2)CC1 and print it. 151

Give a short answer stating reported Binding Selectivity using CP55940 Displacement for CS(=O)(=O)NC1(c2ccccc2)CCN(c2ncnc3c2nc(-c2ccccc2Cl)n3-c2ccc(Cl)cc2)CC1 . 153

====

- protocol: Brain penetration / plasma and brain levels after oral dosing in SD rats
- Format: in vivo, Sprague-Dawley (SD) rats
- measurement setup: Sprague-Dawley, rat, brain and plasma, oral 10 mg/kg, 24 hours post dose
measured parameter: Kp at 24 h
Give a plain numeric answer without units written out.

State its Kp at 24 h: CCCCC(=O)NC1CCN(c2ncnc3c2nc(-c2ccccc2Cl)n3-c2ccc(Cl)cc2)CC1 [drawing 85] 0.13

Let me know recorded Kp at 24 h for CCOC(=O)NC1CCN(c2ncnc3c2nc(-c2ccccc2Cl)n3-c2ccc(Cl)cc2)CC1 [drawing 84] , thanks. 0.46

====

Record form. Attribute: Ke (nM) at CB1. Fill in for each entry.
- target under test: CB1 (Homo sapiens (Human))
- protocol: CB1 activated Gαq16-coupled intracellular calcium mobilization assay in CHO-K1 cells
- Format: cell-based
- measurement setup: apparent affinity (Ke)
The reply should be a number in nM, with the unit left off.

Note down Ke (nM) at CB1 recorded for O=S(=O)(NC1CCN(c2ncnc3c2nc(-c2ccccc2Cl)n3-c2ccc(Cl)cc2)CC1)c1ccccc1 0.26

Input CC(=O)N1CCCC(Nc2ncnc3c2nc(-c2ccccc2Cl)n3-c2ccc(Cl)cc2)C1 (stereo not shown) , output reported Ke (nM) at CB1. 4449

Identify measured Ke (nM) at CB1 associated with CCCNC(=O)NC1(c2ccccc2)CCN(c2ncnc3c2nc(-c2ccccc2Cl)n3-c2ccc(Cl)cc2)CC1 100

Retrieve Ke (nM) at CB1 measured for CC(=O)NC1(c2ccccc2)CCN(c2ncnc3c2nc(-c2ccccc2Cl)n3-c2ccc(Cl)cc2)CC1 and print it. 10.31

====

- target under test: CB1 (Homo sapiens (Human), UniProt P21554)
- Sequence (P21554 whole entry): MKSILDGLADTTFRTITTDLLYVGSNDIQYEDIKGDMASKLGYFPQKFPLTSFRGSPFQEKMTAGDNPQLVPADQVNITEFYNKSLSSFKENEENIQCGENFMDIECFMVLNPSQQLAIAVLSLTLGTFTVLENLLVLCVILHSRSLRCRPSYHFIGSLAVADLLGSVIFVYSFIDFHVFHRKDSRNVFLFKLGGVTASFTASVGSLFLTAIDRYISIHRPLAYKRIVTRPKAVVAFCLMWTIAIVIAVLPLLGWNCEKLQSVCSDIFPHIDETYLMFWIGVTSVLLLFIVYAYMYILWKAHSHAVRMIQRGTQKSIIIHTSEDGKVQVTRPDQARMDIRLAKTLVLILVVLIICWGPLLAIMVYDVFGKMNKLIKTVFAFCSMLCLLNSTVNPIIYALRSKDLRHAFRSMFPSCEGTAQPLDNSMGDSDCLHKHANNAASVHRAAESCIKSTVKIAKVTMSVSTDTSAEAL
- protocol: Displacement of [3H]CP55940 in membranes of CHO-K1 cells over-expressing CB1
- measurement setup: CB1 versus CB2
I'd appreciate it if you could supply Binding Selectivity using CP55940 Displacement values for the items below.
Please give only the number in your answer, with no unit.

Report Binding Selectivity using CP55940 Displacement under test system CB1 (Homo sapiens (Human), UniProt P21554) for CC(C)CC(=O)NC1CCN(c2ncnc3c2nc(-c2ccccc2Cl)n3-c2ccc(Cl)cc2)CC1 . 22

Report Binding Selectivity using CP55940 Displacement under test system CB1 (Homo sapiens (Human), UniProt P21554) for O=C(NC1CCN(c2ncnc3c2nc(-c2ccccc2Cl)n3-c2ccc(Cl)cc2)CC1)C1CCCCC1 . 249

Write down the reported Binding Selectivity using CP55940 Displacement (system: CB1 (Homo sapiens (Human), UniProt P21554)) of CCCCC(=O)NC1CCN(c2ncnc3c2nc(-c2ccccc2Cl)n3-c2ccc(Cl)cc2)CC1 [drawing 78] 54

// fetch Binding Selectivity using CP55940 Displacement for CC(C)(C)NC(=O)NC1(c2ccccc2)CCN(c2ncnc3c2nc(-c2ccccc2Cl)n3-c2ccc(Cl)cc2)CC1 ; system: CB1 (Homo sapiens (Human), UniProt P21554) 784

Enter Binding Selectivity using CP55940 Displacement (test system CB1 (Homo sapiens (Human), UniProt P21554)) for CC(C)(C)NC(=O)C1(c2ccccc2)CCN(c2ncnc3c2nc(-c2ccccc2Cl)n3-c2ccc(Cl)cc2)CC1 4902

# lookup: CB1 (Homo sapiens (Human), UniProt P21554) Binding Selectivity using CP55940 Displacement, key = CCNC(=O)NC1(c2ccccc2)CCN(c2ncnc3c2nc(-c2ccccc2Cl)n3-c2ccc(Cl)cc2)CC1 24

Please look at CC(=O)NC1(c2ccccc2)CCN(c2ncnc3c2nc(-c2ccccc2Cl)n3-c2ccc(Cl)cc2)CC1 and tell me its recorded Binding Selectivity using CP55940 Displacement on CB1 (Homo sapiens (Human), UniProt P21554). 121

Recall the reported Binding Selectivity using CP55940 Displacement of NS(=O)(=O)NCC1CCC(CNc2ncnc3c2nc(-c2ccccc2Cl)n3-c2ccc(Cl)cc2)CC1 (centres unmarked) on CB1 (Homo sapiens (Human), UniProt P21554) and write it down. 30.2

====

- target under test: CB1 (Homo sapiens (Human))
- protocol: Radioligand displacement of [3H]SR141716 at CB1
- Assay type: binding
- measurement setup: radioligand [3H]SR141716; read-out: Ki (nM) v. [3H]SR141716 at CB1
For each entry below, report its Ki value.
Write the value in nM as a bare number.

Fill in Ki for record NC(=O)C1(c2ccccc2)CCN(c2ncnc3c2nc(-c2ccccc2Cl)n3-c2ccc(Cl)cc2)CC1 0.28

Input NS(=O)(=O)NCC1CCC(CNc2ncnc3c2nc(-c2ccccc2Cl)n3-c2ccc(Cl)cc2)CC1 (stereo not shown) , output reported Ki. 94.5

Output Ki of O=S1(=O)CCN(c2ncnc3c2nc(-c2ccccc2Cl)n3-c2ccc(Cl)cc2)CC1 16.8

Tell me its Ki given CS(=O)(=O)NCC1CCC(CNc2ncnc3c2nc(-c2ccccc2Cl)n3-c2ccc(Cl)cc2)CC1 (stereo not shown) as the entry. 44.5

====

I'd be grateful if you could share measured Binding Selectivity using CP55940 Displacement for these entries.
- target under test: CB1 (Homo sapiens (Human), UniProt P21554)
- protocol: Displacement of [3H]CP55940 in membranes of CHO-K1 cells over-expressing CB1;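 note: reported values are averages of 3-6 independent measurements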
- measurement setup: CB1 versus CB2
No unit in the answer, please; the number alone is enough.

Supply recorded Binding Selectivity using CP55940 Displacement for CS(=O)(=O)NCC1CCC(CNc2ncnc3c2nc(-c2ccccc2Cl)n3-c2ccc(Cl)cc2)CC1 (centres unmarked) here. 8.6

Provide one value: measured Binding Selectivity using CP55940 Displacement of NC(=O)C1(c2ccccc2)CCN(c2ncnc3c2nc(-c2ccccc2Cl)n3-c2ccc(Cl)cc2)CC1 3076.5

For the compound O=S1(=O)CCN(c2ncnc3c2nc(-c2ccccc2Cl)n3-c2ccc(Cl)cc2)CC1 , give its measured Binding Selectivity using CP55940 Displacement value. 26.0

For the compound CC(C)(C)OC(=O)N1CCC(Nc2ncnc3c2nc(-c2ccccc2Cl)n3-c2ccc(Cl)cc2)CC1 , report Binding Selectivity using CP55940 Displacement. 568.8

For the compound O=S(=O)(NC1CCN(c2ncnc3c2nc(-c2ccccc2Cl)n3-c2ccc(Cl)cc2)CC1)C(F)(F)F , give its measured Binding Selectivity using CP55940 Displacement value. 738

Determine from records and report Binding Selectivity using CP55940 Displacement for CCOC(=O)NC1CCN(c2ncnc3c2nc(-c2ccccc2Cl)n3-c2ccc(Cl)cc2)CC1 [drawing 62] 119

For the compound O=C(NC1CCN(c2ncnc3c2nc(-c2ccccc2Cl)n3-c2ccc(Cl)cc2)CC1)C1CCCC1 , give its measured Binding Selectivity using CP55940 Displacement value. 39

Return Binding Selectivity using CP55940 Displacement (reported value) for this compound: O=C(CC1CCCC1)NC1CCN(c2ncnc3c2nc(-c2ccccc2Cl)n3-c2ccc(Cl)cc2)CC1 282

====

- target under test: UniProt:P21554
- protocol: Displacement of [3H]CP55940 in membranes of CHO-K1 cells over-expressing CB1
- measurement setup: read-out: Ki (nM) v. [3H]CP55940 at CB1; radioligand [3H]CP55940, CHO-K1 membranes
Hi there, I'd appreciate the recorded Ki for every entry that follows.

Dear colleague, please send me the reported Ki for O=C(CC1CCCCC1)NC1CCN(c2ncnc3c2nc(-c2ccccc2Cl)n3-c2ccc(Cl)cc2)CC1 when you can. 1.93 nM

Please list Ki recorded for the compound CC(C)CC(=O)NC1CCN(c2ncnc3c2nc(-c2ccccc2Cl)n3-c2ccc(Cl)cc2)CC1 4.01 nM

// fetch Ki given entry CC(C)CCC(=O)NC1CCN(c2ncnc3c2nc(-c2ccccc2Cl)n3-c2ccc(Cl)cc2)CC1 2.67 nM

Complete the entry with Ki for NS(=O)(=O)NCC1CCC(CNc2ncnc3c2nc(-c2ccccc2Cl)n3-c2ccc(Cl)cc2)CC1 (stereo not shown) 355 nM
